These measurements were taken from ChEMBL document CHEMBL3885881.

Measured CHOLESTEROL, listed per entry.
# Organism: Rattus norvegicus
# assay_overview: DrugMatrix - Regimen: Daily Repeat
# Format: toxicity, organism-based, Sprague-Dawley
# Design: regimen Daily Repeat, gender Male, age 6-8 weeks
# setup_conditions: in vivo, po, 10 mg/kg, 120 h, tissue Plasma, route oral GAVAGE, dose level Low, time 5 day, vehicle .5 % CMC

- molecule: "COc1c(C)c2c(c(O)c1C/C=C(\\C)CCC(=O)OCCN1CCOCC1)C(=O)OC2 [MYCOPHENOLATE MOFETIL]"
  CHOLESTEROL, mg/dL: 61.67
- molecule: "CC(=O)O[C@]1(C(C)=O)CC[C@H]2[C@@H]3C=C(Cl)C4=CC(=O)CC[C@]4(C)[C@H]3CC[C@@]21C [CHLORMADINONE ACETATE]"
  CHOLESTEROL, mg/dL: 79.67
- molecule: "O=C1CN=C(c2ccccc2)c2cc([N+](=O)[O-])ccc2N1 [NITRAZEPAM]"
  CHOLESTEROL, mg/dL: 67.67
- molecule: "NS(=O)(=O)c1cc2c(cc1Cl)NCNS2(=O)=O [HYDROCHLOROTHIAZIDE]"
  CHOLESTEROL, mg/dL: 62
